// provenance: paper PMC8189464

Target: T1, GST-PDZ domain #2 of human Zona Occludens-1 (ZO1) (human, UniProt Q07157 186-264)
T1 construct: second PDZ domain (PDZ domain #2) of human Zona Occludens-1 (ZO1), from plasmid pGEX-ZO1-2/3; also called GST-ZO1 PDZ domain #2; GST-ZO1-PDZ-2; source: E. coli BL21(DE3), purified (glutathione-Sepharose 4B); on the array: purified GST fusion protein
T1 sequence (looked up): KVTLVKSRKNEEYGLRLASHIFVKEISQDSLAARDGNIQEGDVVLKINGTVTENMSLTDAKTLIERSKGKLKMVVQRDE
Test: AlphaScreen or HTRF; GST protein pre-bound to anti-GST-terbium donor antibody, biotinylated peptide pre-bound to streptavidin-d2 acceptor; serial 1:2 dilutions of both in a matrix; 25 mM HEPES pH 7.4, 150 mM NaCl, 5 mM MgCl2, 0.005% Tween-20; 1 hr incubation; one-site saturation binding fit; Kd at 3 nM GST-ZO1 PDZ domain #2
Conditions: both partners purified
*: point of attachment. Biotin = O=C1N[C@H]2[C@H](CS[C@H]2CCCCC(=O)*)N1
Reported Property: Kd (nM)
Number in nM, nothing else.

Request the reported Kd associated with Biotin-SRVKNLNSSRVPDLLV-OH (also called WT E peptide; Bt-WT peptide) [SARS-CoV-2 E WT peptide (Biotin-SRVKNLNSSRVPDLLV-COOH)]
29
